Please respond with reported protein stability index for every item in the list.
assay: protein stability index of a GFP-peptide fusion (yeast GPS) (PSI 1-4); higher = more stable; sorted into four equal gates, so the index is relative within each strain; settings: pdr5∆

Looking for the measured protein stability index of NVGDNNSTASSSNISPE [ARP7] , can you help? 3.11

Looking for the measured protein stability index of KKICNHPFVFEEVEDQI [SNF2] , can you help? 2.89

Looking for the measured protein stability index of SKDVQQIDYKLESFQAV [RPS7A] , can you help? 3.06

Looking for the measured protein stability index of EEDYNEFNSIDRVIFRV [PRP8] , can you help? 3.17

Looking for the measured protein stability index of NISTNTNIHEPQYINYS [SSN2] , can you help? 2.98

Looking for the measured protein stability index of KTITLEVESSDTIDNVK [RPS31] , can you help? 3.08

Looking for the measured protein stability index of QEVTNEAPFLTSGTSSE [GAL11] , can you help? 3.35

Looking for the measured protein stability index of QAQAQAQANNNNNGLPQ [GAL11] , can you help? 3.1

Looking for the measured protein stability index of RMRNRALREMRKSDQQD [POP1] , can you help? 3.63

Looking for the measured protein stability index of MDRDSESEEAETKDIRK [SRB4] , can you help? 3.13

Looking for the measured protein stability index of LSSAGKNSSVSSLMNGL [SRB5] , can you help? 1.24

Looking for the measured protein stability index of TGYDLSNSVFSPDGRNF [PRE10] , can you help? 2.88

Looking for the measured protein stability index of GDVSSGLFEKSTVSANH [BRN1] , can you help? 3.31

Looking for the measured protein stability index of NELTDAIALAVRLGEED [RPN1] , can you help? 3.27

Looking for the measured protein stability index of AVPLQIVSPQSNKPCMG [RPO21] , can you help? 1.71

Looking for the measured protein stability index of PNIVEIDLDNDEDDDED [DLS1] , can you help? 3.29

Looking for the measured protein stability index of IDPDTKAPNAVVITFEK [RPB11] , can you help? 3.22

Looking for the measured protein stability index of TSLFGSSSAQQTKSNGT [YJL041W/NSP1] , can you help? 3.4

Looking for the measured protein stability index of HASKAIGLPRHSLAYLL [RRP6] , can you help? 2.2

Looking for the measured protein stability index of IRKQPDDIINNDEPSHK [SIR2] , can you help? 2.95

Looking for the measured protein stability index of LAFYQVTPEEDEEEDEE [RPL22A] , can you help? 3.45

Looking for the measured protein stability index of IGWCKEDPKRRADTMDF [YJL039C/NUP192] , can you help? 3.56

Looking for the measured protein stability index of TPPDDLHPYVPSSKPQE [SRB8] , can you help? 2.98

Looking for the measured protein stability index of TTIQTEKVRPTPGEVAS [MCD1] , can you help? 2.44

Looking for the measured protein stability index of TGEFDFEAAVKMSDGFN [RPT4] , can you help? 3.33

Looking for the measured protein stability index of EQQLFEIFAFGNIKDLP [CSN9] , can you help? 2.97

Looking for the measured protein stability index of PLIMATCGSKGSTLNVS [RPO31] , can you help? 2.05

Looking for the measured protein stability index of VVDFTSLPEELKKRYDL [YMR129W/POM152] , can you help? 2.33

Looking for the measured protein stability index of TGKTLLARACAAQTNAT [RPT5] , can you help? 2.92

Looking for the measured protein stability index of GISEVQARKSKSVSFYA [RPT5] , can you help? 3.39

Looking for the measured protein stability index of RHSNALVDILPPDSDSS [RPT3] , can you help? 2.65

Looking for the measured protein stability index of EVILVDPQHKAIRRDAR [RPL15A] , can you help? 3.15

Looking for the measured protein stability index of SPVELSRMFEEVSGSIQ [SMC1] , can you help? 2.16

Looking for the measured protein stability index of KEKIKGLQDEIMKIGGI [SMC4] , can you help? 3.19

Looking for the measured protein stability index of FLVLYDVKTAEEASQLI [NUT1] , can you help? 1.93

Looking for the measured protein stability index of EFYNEMHRPVHFLQFSE [PRP8] , can you help? 2.51

Looking for the measured protein stability index of IQWYKSLLEKDIDAVNG [ISW2] , can you help? 3.02

Looking for the measured protein stability index of NSSEEDKKKGQNVTSET [ITC1] , can you help? 3.31

Looking for the measured protein stability index of PGDGSSYINVTFRAVVF [RPC25] , can you help? 2.05

Looking for the measured protein stability index of RKKKFVLDVDPKYAKQK [ISW2] , can you help? 2.45

Looking for the measured protein stability index of FVFTNEPLTEIKNVIVS [RPP0] , can you help? 2.68

Looking for the measured protein stability index of VLKADRSWNEPSKSQTN [YML103C/NUP188] , can you help? 3.16

Looking for the measured protein stability index of ENIAQMKPKAEKESDDG [SMC4] , can you help? 3.16

Looking for the measured protein stability index of DGEGKVDSISLHKIFYK [YCG1] , can you help? 3.24

Looking for the measured protein stability index of KVTSYDITGDIRNEGSD [ISW2] , can you help? 3.04

Looking for the measured protein stability index of RLISQSLLASKSTYRTP [RIP1] , can you help? 3.04

Looking for the measured protein stability index of LFMKSLIENCKKRNMPL [SWI1] , can you help? 2.72

Looking for the measured protein stability index of PKLKRIGLVKCTQMTDE [GRR1] , can you help? 2.89

Looking for the measured protein stability index of VSTRAIDLLWKGKTPKN [PRP28] , can you help? 1.48

Looking for the measured protein stability index of ENDHERGFFHLNEALLQ [CSN12] , can you help? 2.91

Looking for the measured protein stability index of MLMPKQERNKIHQYLFQ [RPS10B] , can you help? 2.88

Looking for the measured protein stability index of KLSKILPRYQELTKEEA [SMC3] , can you help? 3.34

Looking for the measured protein stability index of AAQDVWNRADNHFKDTY [FAS1] , can you help? 3.14

Looking for the measured protein stability index of LKRFPKMSVTCNAQPIT [BRR2] , can you help? 2.23

Looking for the measured protein stability index of SQSKMMSSQISSLIPHC [MTR3] , can you help? 2.09

Looking for the measured protein stability index of SFFHQSNMQKSLLPYYH [RPN3] , can you help? 1.67

Looking for the measured protein stability index of DDEEYDYNDVEVNSKKK [BRR2] , can you help? 3.18

Looking for the measured protein stability index of TCGSKGSTLNVSQMVAV [RPO31] , can you help? 2.89

Looking for the measured protein stability index of MKQPYVFVKKHHELIKV [SSN2] , can you help? 1.27

Looking for the measured protein stability index of NFLSKIRNINVQDALLT [SNF2] , can you help? 1.99

Looking for the measured protein stability index of KEEFSSAENRDEKDYLT [CSE2] , can you help? 2.85

These data points were gathered from the supplement of paper PMC9732359.
